molecular target: human Nav1.7 (Homo sapiens, UniProt Q15858); construct: expressed in transfected cells; experiment: Assessment of Nav1.7 activity on PatchXpress (voltage dependence / slow inactivation parameters); type: cell-based; conditions: compound at 10 μM; before/after 30 sec conditioning pulse at 20 mV; relative to 0.2% DMSO vehicle control
Sequence (Q15858 whole entry): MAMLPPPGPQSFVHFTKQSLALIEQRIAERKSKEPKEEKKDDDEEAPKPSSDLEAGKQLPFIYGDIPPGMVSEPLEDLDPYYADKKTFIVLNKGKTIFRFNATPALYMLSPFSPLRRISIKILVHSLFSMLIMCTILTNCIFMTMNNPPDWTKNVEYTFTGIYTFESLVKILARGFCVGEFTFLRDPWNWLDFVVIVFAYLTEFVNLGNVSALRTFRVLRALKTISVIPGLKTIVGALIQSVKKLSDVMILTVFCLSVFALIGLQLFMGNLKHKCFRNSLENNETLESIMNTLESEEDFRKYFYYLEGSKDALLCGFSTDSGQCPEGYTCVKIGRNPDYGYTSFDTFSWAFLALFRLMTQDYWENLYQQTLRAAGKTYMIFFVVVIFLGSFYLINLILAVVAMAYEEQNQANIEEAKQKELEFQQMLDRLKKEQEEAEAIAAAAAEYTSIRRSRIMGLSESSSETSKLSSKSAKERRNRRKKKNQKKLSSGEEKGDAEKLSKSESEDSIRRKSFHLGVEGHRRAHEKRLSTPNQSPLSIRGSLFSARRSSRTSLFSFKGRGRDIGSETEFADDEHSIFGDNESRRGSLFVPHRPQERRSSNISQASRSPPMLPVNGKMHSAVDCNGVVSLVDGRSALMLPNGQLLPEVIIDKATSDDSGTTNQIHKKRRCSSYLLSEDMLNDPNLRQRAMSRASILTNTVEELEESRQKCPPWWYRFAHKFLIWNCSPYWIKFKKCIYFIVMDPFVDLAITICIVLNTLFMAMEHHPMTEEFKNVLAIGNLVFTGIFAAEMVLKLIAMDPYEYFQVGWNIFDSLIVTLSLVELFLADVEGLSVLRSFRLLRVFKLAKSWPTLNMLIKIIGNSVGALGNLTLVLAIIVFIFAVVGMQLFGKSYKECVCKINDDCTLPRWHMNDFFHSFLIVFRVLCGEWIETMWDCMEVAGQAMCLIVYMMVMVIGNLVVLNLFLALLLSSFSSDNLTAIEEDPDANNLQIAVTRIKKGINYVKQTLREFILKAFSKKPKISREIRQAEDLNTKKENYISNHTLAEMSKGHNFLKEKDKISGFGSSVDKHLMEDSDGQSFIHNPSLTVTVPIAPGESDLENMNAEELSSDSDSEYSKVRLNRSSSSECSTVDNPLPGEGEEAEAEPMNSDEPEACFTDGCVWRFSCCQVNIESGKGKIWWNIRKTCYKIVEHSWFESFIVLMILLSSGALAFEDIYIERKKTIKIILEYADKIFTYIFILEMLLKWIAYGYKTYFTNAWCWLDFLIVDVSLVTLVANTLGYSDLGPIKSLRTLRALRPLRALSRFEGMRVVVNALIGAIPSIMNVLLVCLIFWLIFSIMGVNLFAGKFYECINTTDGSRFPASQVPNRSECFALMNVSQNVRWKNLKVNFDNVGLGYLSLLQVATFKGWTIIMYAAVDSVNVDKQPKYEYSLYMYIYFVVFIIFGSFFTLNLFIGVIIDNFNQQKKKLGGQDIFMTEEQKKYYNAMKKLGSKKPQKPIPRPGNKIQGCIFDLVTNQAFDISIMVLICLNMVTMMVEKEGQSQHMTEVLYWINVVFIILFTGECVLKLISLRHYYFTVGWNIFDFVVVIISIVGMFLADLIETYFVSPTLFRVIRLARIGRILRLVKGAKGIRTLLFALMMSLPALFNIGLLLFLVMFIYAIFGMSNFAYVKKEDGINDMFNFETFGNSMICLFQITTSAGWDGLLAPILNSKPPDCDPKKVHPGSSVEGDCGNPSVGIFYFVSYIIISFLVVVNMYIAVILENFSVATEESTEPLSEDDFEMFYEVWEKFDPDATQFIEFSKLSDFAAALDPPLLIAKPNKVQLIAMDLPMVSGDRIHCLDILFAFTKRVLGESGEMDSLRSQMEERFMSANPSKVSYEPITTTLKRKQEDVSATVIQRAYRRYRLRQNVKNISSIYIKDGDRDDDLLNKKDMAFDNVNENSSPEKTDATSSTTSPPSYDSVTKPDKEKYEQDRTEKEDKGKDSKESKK
Sequence (Q07699 19-218 partner): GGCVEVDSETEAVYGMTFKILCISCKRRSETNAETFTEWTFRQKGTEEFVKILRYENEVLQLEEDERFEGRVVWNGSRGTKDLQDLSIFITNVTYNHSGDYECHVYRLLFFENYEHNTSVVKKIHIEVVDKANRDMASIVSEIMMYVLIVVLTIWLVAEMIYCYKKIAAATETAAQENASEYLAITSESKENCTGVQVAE
Is hNav1.7: Reduction in current at 20 mV (normalized data) Delta Ratio at least -0.1? Then fulfilled. If not, not fulfilled.

CC12CC3CC(C)(C1)CC(NC(=O)CCN)(C3)C2 ... fulfilled
NC[C@@H]1Nc2c(cc(C(F)(F)F)cc2C(F)(F)F)NC1=O ... fulfilled
CN(Cc1nc2c(C(F)(F)F)cc(C(F)(F)F)cc2[nH]1)C(=O)CNC(C)(C)C ... fulfilled
N[C@H]1CCCC[C@H]1C(=O)NCCOc1cc(C(F)(F)F)cc(C(F)(F)F)c1 ... not fulfilled
Cc1cccc(C)c1OCC(C)NC(=O)[C@H](N)CC(C)C (stereo partly drawn) ... not fulfilled
Cc1cccc(C)c1OCC(C)NC(=O)[C@@H](N)CC(C)C (stereo partly drawn) ... not fulfilled

Ask: Assess whether reported hNav1.7: Reduction in current at 20 mV (normalized data) Delta Ratio for O=C(CCc1nc2cc(F)cc(F)c2[nH]1)N1CCNCC1 sits at -0.1 or higher.
Reply: not fulfilled

====

biological target: human Nav1.7 (Homo sapiens, UniProt Q15858); construct: expressed in transfected cells; assay: Assessment of Nav1.7 activity on PatchXpress (voltage dependence / slow inactivation parameters); format: cell-based; conditions: compound at 10 μM; relative to 0.2% DMSO vehicle control; PatchXpress
Is hNav1.7: Shift in voltage dependence of inactivation (mV) Delta Vhalf at least -10 mV? Then YES. If not, NO.

Solved cases (3 shown):
CN[C@H](CC(C)C)C(=O)NCCOc1cc(F)cc(C(F)(F)F)c1 ... NO
Cc1cccc(C)c1OCC(C)NC(=O)CCN1CCNCC1=O (centres unmarked) ... YES
O=C(CCc1nc2cc(F)cc(F)c2[nH]1)N1CCNCC1 ... NO

Let's switch to this molecule now.
Ask: Assess whether reported hNav1.7: Shift in voltage dependence of inactivation (mV) Delta Vhalf for N[C@H](Cc1cccc(C(F)(F)F)c1)C(=O)NCc1nc2ccc(Br)cc2[nH]1 sits at -10 mV or higher.
Reply: YES

====

biological target: hNav1.7 (Homo sapiens, UniProt Q15858); construct: expressed in transfected cells; experiment: Nav1.7 potency, Patchliner automated patch clamp; format: cell-based; conditions: initial pulse (P1); automated patchclamp; read-out: Nav1.7 IC50 P1 BLOCK (nM) (Automated Patchclamp)
Sequence (Q15858 whole entry): as the sequence (Q15858 whole entry) above
Sequence (Q07699 19-218 partner): as the sequence (Q07699 19-218 partner) above
# maps each entry to its IC50

Some solved cases for reference:
CC(C)CC(N)C(=O)N[C@@H](C)COc1cc(C(F)(F)F)cc(C(F)(F)F)c1 (stereo partly shown) ... 11500 nM
CC(C)C[C@@H](N)C(=O)NC(C)COc1cc(C(F)(F)F)cc(C(F)(F)F)c1 (stereo partly shown) ... 12700 nM
CC(C)C[C@@H](N)C(=O)N[C@@H](C)COc1cc(C(F)(F)F)cc(C(F)(F)F)c1 ... 15500 nM

Field: next molecule
The molecule CC(C)C[C@@H](N)C(=O)NC(COc1cc(C(F)(F)F)cc(C(F)(F)F)c1)c1ccccc1 (stereo partly shown) showed IC50 equal to 10300 nM
